assayed system: Retinoic acid receptor RXR-alpha (Homo sapiens) (UniProt P19793)
Sequence (P19793 whole entry, looked up): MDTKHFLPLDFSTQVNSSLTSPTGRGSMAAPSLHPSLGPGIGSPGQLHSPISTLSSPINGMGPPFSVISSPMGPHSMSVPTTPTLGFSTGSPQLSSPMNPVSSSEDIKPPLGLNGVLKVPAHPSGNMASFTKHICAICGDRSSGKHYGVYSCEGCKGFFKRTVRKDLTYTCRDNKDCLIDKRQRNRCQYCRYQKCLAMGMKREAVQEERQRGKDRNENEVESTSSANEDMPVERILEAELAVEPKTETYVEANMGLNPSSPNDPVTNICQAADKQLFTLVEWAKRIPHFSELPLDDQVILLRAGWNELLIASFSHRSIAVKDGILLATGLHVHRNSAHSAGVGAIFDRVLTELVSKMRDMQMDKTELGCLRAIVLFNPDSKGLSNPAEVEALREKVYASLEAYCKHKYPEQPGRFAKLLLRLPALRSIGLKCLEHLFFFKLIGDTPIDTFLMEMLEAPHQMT
assay info: qHTS assay to identify small molecule agonists of the RXR signaling pathway (AID 1159527); note: nearly all actives have a fitted effect of over 35% in size
condition parameters: HEK293T RXRa-UAS-bla, beta-lactamase ratio, 16 h; series mostly up to 76.8 µM
Records with an inconclusive call do not appear. Active and inactive are the calls of the source. Calls come from the whole dose curve.
Labels: 1 (yes) for active, 0 (no) for inactive

{"columns": ["compound", "class name"],
 "data": [
  ["CC(C)(Cl)[N+](=O)[O-]", "0 (no)"],
  ["Sc1ccccc1Cl", "0 (no)"],
  ["C=CC(=O)OCC(C)C", "0 (no)"],
  ["C=CC(=O)OCCCCO", "0 (no)"],
  ["CCOP(=O)(OCC)SCCSCC", "0 (no)"],
  ["CCCCN=C=O", "0 (no)"],
  ["C=CCCl", "0 (no)"],
  ["C=CC(C)=O", "0 (no)"],
  ["COC(=O)C(Cl)C(=O)OC", "0 (no)"],
  ["C[N+](C)(C)CCCl", "0 (no)"],
  ["Nc1nc(=S)[nH][nH]1", "0 (no)"],
  ["CCBr", "0 (no)"],
  ["Clc1cccc(SC2CCNCC2)n1", "0 (no)"],
  ["CCCCCC[N+](=O)[O-]", "0 (no)"],
  ["Cl/C=C\\Cl", "0 (no)"],
  ["COc1cc(CC(C)N)cc2c1OCO2 (centres undefined)", "0 (no)"],
  ["ClCc1cccc(Cl)c1", "0 (no)"],
  ["CC1CC(CC2CCC(N)C(C)C2)CCC1N (centres undefined)", "0 (no)"],
  ["CC(=O)[C@H]1CC[C@H]2[C@@H]3CC[C@H]4C[C@](C)(O)CC[C@]4(C)[C@H]3CC[C@]12C", "0 (no)"],
  ["O=[N+]([O-])c1ccccc1CCl", "0 (no)"],
  ["C=CC(=O)NCNC(=O)C=C", "1 (yes)"],
  ["c1ccoc1", "0 (no)"],
  ["N#Cc1ccc(Cl)cc1", "0 (no)"],
  ["CC(C)=CCOc1c2occc2cc2ccc(=O)oc12", "0 (no)"],
  ["Nc1ccc([N+](=O)[O-])cc1[N+](=O)[O-]", "0 (no)"],
  ["CCOC(=O)C(Cl)C(C)=O (centres undefined)", "0 (no)"],
  ["C=CCC1([C@H](C)CCC)C(=O)NC(=O)NC1=O", "0 (no)"],
  ["C=C(C#N)CCC#N", "0 (no)"],
  ["N#CCc1ccccc1", "0 (no)"]
]}
